Target: BRD9 (Homo sapiens)
Sequence (Q9H8M2 whole entry): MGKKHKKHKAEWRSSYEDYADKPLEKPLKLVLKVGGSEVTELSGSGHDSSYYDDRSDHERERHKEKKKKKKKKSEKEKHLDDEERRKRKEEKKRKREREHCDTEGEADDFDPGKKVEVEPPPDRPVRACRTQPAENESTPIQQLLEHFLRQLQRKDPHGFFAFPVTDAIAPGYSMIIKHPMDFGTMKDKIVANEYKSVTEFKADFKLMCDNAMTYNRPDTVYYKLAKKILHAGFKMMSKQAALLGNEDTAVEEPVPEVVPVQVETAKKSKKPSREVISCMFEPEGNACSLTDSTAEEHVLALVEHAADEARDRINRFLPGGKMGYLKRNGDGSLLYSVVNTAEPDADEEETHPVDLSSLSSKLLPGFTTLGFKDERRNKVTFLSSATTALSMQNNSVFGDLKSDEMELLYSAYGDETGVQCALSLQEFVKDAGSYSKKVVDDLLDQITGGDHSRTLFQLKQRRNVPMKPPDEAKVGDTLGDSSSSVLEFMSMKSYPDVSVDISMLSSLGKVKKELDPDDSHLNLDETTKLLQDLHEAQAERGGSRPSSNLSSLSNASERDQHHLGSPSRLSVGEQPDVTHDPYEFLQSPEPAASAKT
Assay: Degradation of BRD9 (IF), immunofluorescence in MV4-11 cells, 24 hours (Assay Protocol 2)
Assay type: cell-based
Design: A suspension of MV4-11 cells (ATCC CRL-9591) was prepared; host or cells: MV4-11
Conditions: MV4-11, Assay protocol 2; BRD9 degradation; read-out: Dmax
Below is a list of entries, each paired with its recorded Dmax value.

CC[C@H]1CN(Cc2c(OC)cc(-c3cn(C)c(=O)c(C)c3C)cc2OC)CCN1Cc1cccc2c1CCN(C(=O)/C(C#N)=C/C(C)(C)C)C2C (mixture of isomers)    > 75%
COc1cc(-c2cn(C)c(=O)c(C)c2C)cc(OC)c1CN1CCN(Cc2cccc3c2CCN(C(=O)/C(C#N)=C/c2cnc(C)cn2)C3C)CC1 (mixture of isomers)    > 75%
COc1cc(-c2cn(C)c(=O)c(C)c2C)cc(OC)c1CN1CCN(Cc2cccc3c2CCN(C(=O)/C(C#N)=C/C(C)(C)C)C3C)CC12CC2 (mixture of isomers)    > 75%
COc1cc(-c2cn(C)c(=O)c(C)c2C)cc(OC)c1CN1C2CC1CN(Cc1cccc3c1CCN(C(=O)/C(C#N)=C/C(C)(C)C)C3C)C2 (mixture of isomers)    40 to 70%
COc1cc(-c2cn(C)c(=O)c(C)c2C)cc(OC)c1CN1CCN(Cc2cccc3c2CCN(C(=O)/C(C#N)=C/C2CC(F)(F)C2)C3C)C2(CC2)C1 (mixture of isomers)    > 75%

## Input So what's the measured Dmax for this one? COc1cc(-c2cn(C)c(=O)c(C)c2C)cc(OC)c1CN1[C@H](C)CN(Cc2cccc3c2CCN(C(=O)/C(C#N)=C/C(C)(C)C)C3C)C[C@@H]1C (mixture of isomers)
## Output > 75%

## Input Check CCC[C@@H]1c2cccc(CN3CCN(Cc4c(OC)cc(-c5cn(C)c(=O)c(C)c5C)cc4OC)CC34CC4)c2CCN1C(=O)/C(C#N)=C/C(C)(C)C (single isomer, unassigned) too.
## Output 40 to 70%

## Input Check COc1cc(-c2cn(C)c(=O)c(C)c2C)cc(OC)c1CN1CCN(C(=O)c2ccc(C3CCCN3C(=O)/C(C#N)=C/C(C)(C)C)cc2)CC1 (mixture of isomers) too.
## Output > 75%

## Input Check COc1cc(-c2cn(C)c(=O)c(C)c2C)cc(OC)c1CN1CC(N(C)c2ccc3c(c2)[C@H](C)N(C(=O)/C(C#N)=C/C(C)(C)C)CC3)C1 (single isomer, unassigned) too.
## Output 70 to 75%

## Input Check COc1cc(-c2cn(C)c(=O)c(C)c2C)cc(OC)c1CN1CCN(Cc2ccc3c(c2)[C@H](C)N(C(=O)/C(C#N)=C/C(C)(C)C)CC3)[C@H](C)C1 (single isomer, unassigned) too.
## Output 40 to 70%

## Input Check COc1cc(-c2cn(C)c(=O)c(C)c2C)cc(OC)c1CN1CCN(Cc2cccc3c2CCN(C(=O)/C(C#N)=C/C2(C)CCOCC2)[C@@H]3C)C2(CC2)C1 (single isomer, unassigned) too.
## Output > 75%

## Input Check COc1cc(-c2cn(C)c(=O)c(C)c2C)cc(OC)c1CN1CCN(Cc2cccc3c2CCN(C(=O)/C(C#N)=C/C(C)(C)C)[C@H]3C)CC12CC2 (single isomer, unassigned) too.
## Output > 75%

## Input Check COc1ccc(F)c(/C=C(\C#N)C(=O)N2CCc3c(CN4CCN(Cc5c(OC)cc(-c6cn(C)c(=O)c(C)c6C)cc5OC)CC4)cccc3C2C)c1 (mixture of isomers) too.
## Output 40 to 70%

## Input Check COc1cc(-c2cn(C)c(=O)c(C)c2C)cc(OC)c1CN1CC2(C1)CN(c1cccc(C3CCCN3C(=O)/C(C#N)=C/C(C)(C)C)c1)C2 (mixture of isomers) too.
## Output 40 to 70%

## Input Check COc1cc(-c2cn(C)c(=O)c(C)c2C)cc(OC)c1CN1CCC(Oc2cccc(C3CCCN3C(=O)/C(C#N)=C/C(C)(C)C)c2)C1 (mixture of isomers) too.
## Output 70 to 75%

## Input Check COc1cc(-c2cn(C)c(=O)c(C)c2C)cc(OC)c1CN1CCC(Cc2cccc3c2CCN(C(=O)/C(C#N)=C/C(C)(C)CF)C3C(C)C)CC1 (mixture of isomers) too.
## Output 70 to 75%

## Input Check COc1cc(-c2cn(C)c(=O)c(C)c2C)cc(OC)c1CN1CCN(Cc2cccc3c2CCN(C(=O)/C(C#N)=C/C(C)(C)CF)[C@@H]3C)C2(CC2)C1 (single isomer, unassigned) too.
## Output 70 to 75%

## Input Check COc1cc(-c2cn(C)c(=O)c(C)c2C)cc(OC)c1CN1CCN(Cc2cccc3c2CCN(C(=O)/C(C#N)=C/C2(C(F)(F)F)CCC2)C3C)CC1 (mixture of isomers) too.
## Output 40 to 70%

## Input Check COc1cc(-c2cn(C)c(=O)c(C)c2C)cc(OC)c1CN1CCC2(C1)CN(c1cccc3c1CCN(C(=O)/C(C#N)=C/C(C)(C)C)C3C)C2 (mixture of isomers) too.
## Output 40 to 70%

## Input Check COc1cc(-c2cn(C)c(=O)c(C)c2C)cc(OC)c1CN1C2CC1CN(C(=O)/C(C#N)=C/c1cccc(C(F)(F)F)n1)C2 (mixture of isomers) too.
## Output > 75%

All figures here come from patent US20260092061A1.
